assay: Drug level in brain of Sprague-Dawley rat at 10 mg/kg, po administered as single dose via gavage measured at 48 hrs by LC-MS/MS analysis; assay type: ADME, organism-based; conditions: read-out: Drug uptake
Parameter: concentration at 48 h (nM)

>  <Compound>
Nc1ccc(C(=O)N[C@H]2CC/C(=C\c3cccc(Oc4ccc(C(F)(F)F)cn4)c3)CC2)cn1 (stereo not drawn)

>  <Units>
nM

>  <Quantitative readout>
700

$$$$
>  <Compound>
Cc1cc(C(=O)N[C@H]2CC/C(=C\c3cccc(Oc4ccc(C(F)(F)F)cn4)c3)CC2)cnc1N (stereo not drawn)

>  <Units>
nM

>  <Quantitative readout>
600

$$$$
>  <Compound>
Nc1ncc(C(=O)N[C@H]2CC/C(=C\c3cccc(Oc4ccc(C(F)(F)F)cn4)c3)CC2)cn1 (stereo not drawn)

>  <Units>
nM

>  <Quantitative readout>
1100

$$$$

----------
assay: Oral bioavailability in Sprague-Dawley rat at 3 mg/kg administered as single dose via gavage by LC-MS/MS analysis; type: ADME, organism-based; conditions: in vivo

>  <Molecule>
O=C(NC1CCC(=Cc2cccc(Oc3ccc(C(F)(F)F)cn3)c2)CC1)c1cnc2[nH]ccc2c1 (racemic)

>  <bioavailability / %>
7.2

$$$$

----------
assay: Cmax in Sprague-Dawley rat at 3 mg/kg, po administered as single dose via gavage by LC-MS/MS analysis; type: ADME, organism-based; set-up: dose 3 mg/kg, route oral; settings: in vivo

>  <Compound>
O=C(NC1CCC(=Cc2cccc(Oc3ccc(C(F)(F)F)cn3)c2)CC1)c1cnc2[nH]ccc2c1 (racemic)

>  <Cmax>
190 nM

$$$$

----------
test: Drug level in brain of Sprague-Dawley rat at 10 mg/kg, po administered as single dose via gavage measured at 24 hrs by LC-MS/MS analysis; type: ADME, organism-based; settings: read-out: Drug uptake

>  <Compound>
Cc1cc(C(=O)N[C@H]2CC/C(=C\c3cccc(Oc4ccc(C(F)(F)F)cn4)c3)CC2)cnc1N (centres undefined)

>  <concentration at 24 h>
1300 nM

$$$$
>  <Compound>
Nc1ccc(C(=O)N[C@H]2CC/C(=C\c3cccc(Oc4ccc(C(F)(F)F)cn4)c3)CC2)cn1 (centres undefined)

>  <concentration at 24 h>
2500 nM

$$$$
>  <Compound>
O=C(N[C@H]1CC/C(=C\c2cccc(Oc3ccc(C(F)(F)F)cn3)c2)CC1)c1cccnc1 (centres undefined)

>  <concentration at 24 h>
1100 nM

$$$$
>  <Compound>
Nc1ncc(C(=O)N[C@H]2CC/C(=C\c3cccc(Oc4ccc(C(F)(F)F)cn4)c3)CC2)cn1 (centres undefined)

>  <concentration at 24 h>
4400 nM

$$$$

----------
experiment: Intrinsic metabolic stability in rat liver microsomes assessed as metabolic turnover over per mg protein at 1 uM preincubated for 5 mins followed by NADPH cofactor addition and measured after 30 mins by LC-MS/MS analysis; assay type: ADME, Microsome; settings: 0.5 h
Reported Drug metabolism by item:
Parameter: Drug metabolism

>  <Compound>
Nc1ncc(C(=O)N[C@H]2CC/C(=C\c3cccc(Oc4ccc(C(F)(F)F)cn4)c3)CC2)cn1 (centres undefined)

>  <Result>
≤ 0.04 nmol/min/mg

$$$$
>  <Compound>
O=C(NC1CCC(=Cc2cccc(Oc3ccc(C(F)(F)F)cn3)c2)CC1)c1cn[nH]c1 (racemic)

>  <Result>
< 0.04 nmol/min/mg

$$$$
>  <Compound>
Nc1ncc(C(=O)NC2CCC(=Cc3cccc(Oc4ccc(C(F)(F)F)cn4)c3)CC2)cc1Cl (racemic)

>  <Result>
< 0.04 nmol/min/mg

$$$$
>  <Compound>
Cc1cc(C(=O)N[C@H]2CC/C(=C\c3cccc(Oc4ccc(C(F)(F)F)cn4)c3)CC2)cnc1N (centres undefined)

>  <Result>
0.04 to 0.09 nmol/min/mg

$$$$

Reference source for all entries: ChEMBL document CHEMBL4371025
